assay: NCI Yeast Anticancer Drug Screen. Data for the cln2 rad14 strain (AID 165);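 further: 0% = growth equal to vehicle treated cultures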; conditions: S. cerevisiae cln2 rad14 strain, at 50.0 µM, stronger effect = higher value
The panel holds about 79,000 compounds, 15% with a hit somewhere; the sample as a whole holds those more often. Active and inactive are the calls of the source. No stated cut-off is given here; in the data, active means growth inhibition above about 70%; inactive means the rest.
Hi there, I'd appreciate the recorded growth inhibition for every entry that follows.

Below, each entry is followed by its recorded growth inhibition result.
Compound	Endpoint label	Result
Cn1c2nc(-[n+]3ccccc3)nc-2c([O-])n(C)c1=O	growth inhibition	70% (active)
Cc1ccc(C(=O)C(CN(C)C)CN(C)C)cc1	growth inhibition	73.2% (active)
CC(C)C(C)(C(=O)O)C(C)C	growth inhibition	67% (inactive)
Cc1nc(Nc2ccc(Cl)cc2)sc1C(=O)NNC(=S)NN	growth inhibition	91.6% (active)
CCc1cc2c(c3[nH]ccc13)[C@@H](C)C[C@H]2C	growth inhibition	84.3% (active)
C/C(=N\N=C(N)N)c1ccc2c(c1)Cc1cc(/C(C)=N/N=C(N)N)ccc1-2	growth inhibition	87.2% (active)

Field: growth inhibition. Fill in for each record below.
1. O=C(Nc1ccc(S(=O)(=O)NC2CCCCC2)cc1)OC1CCCCCCC1
2. O=C(CCc1ccccc1)COC(=O)c1ccc([N+](=O)[O-])cc1

1: 75% (active); 2: 10.9% (inactive)

Field: growth inhibition. Fill in for each record below.
1. CC(/C=N/NS(=O)(=O)c1ccc(C)cc1)=C(c1ccccc1)c1ccccc1
2. CC(=O)Oc1c(C)cc([N+](=O)[O-])cc1[N+](=O)[O-]
3. CCC(=O)Oc1c(Cl)cc(Cl)c(Cl)c1Cl
4. CCCCCC(/C=N/NC(N)=S)C(O)(C(F)(F)F)C(F)(F)F (stereo unspecified)

1: 72.8% (active); 2: 98.9% (active); 3: 5.45% (inactive); 4: 61% (inactive)

Field: growth inhibition. Fill in for each record below.
1. c1ccc2c(c1)Cc1nc3ccccc3nc1-2
2. COc1ccc(C(=O)C2=C(C)Nc3ccc(Br)cc3S2)cc1
3. NNc1cc(C(F)(F)F)nc2ccccc12
4. CC12OC(=O)C(C(N)=O)=C1C=C(c1ccccc1)CC2c1ccccc1 (stereo unspecified)

["90% (active)", "-3.4% (inactive)", "34.1% (inactive)", "82.5% (active)"]

----------
assay: NCI Yeast Anticancer Drug Screen. Data for the sgs1 mgt1 strain (AID 161);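 further: 0% = growth of cultures given vehicle only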; conditions: S. cerevisiae sgs1 mgt1 strain, at 50.0 µM, stronger effect = higher value
About 79,000 compounds went through this panel and 15% of them were active in at least one assay; those are over-represented in the sample as a whole.
Hi there, I'd appreciate the recorded growth inhibition for every entry that follows.
Give bare numbers, in %.

Compound	Endpoint label	Quantitative result
Cc1ccc(S(=O)(=O)NC2(C=O)CCC(C(C)(C)C)CC2)cc1 (stereo unspecified)	growth inhibition	82
O=C1c2ccccc2C(=O)c2c(OCCOCCO)cccc21	growth inhibition	18
CC(=O)CCC(Br)(CCC(Br)(CCC(C)=O)[N+](=O)[O-])[N+](=O)[O-] (stereo unspecified)	growth inhibition	81.8
ClC1(c2ccccc2)c2ccccc2-c2ccccc21	growth inhibition	83.9
N#CSc1ccc(O)c2ccccc12	growth inhibition	91.7
CC(=O)Oc1ccc(-c2ccccc2)cc1Br	growth inhibition	91.5
CCOC(=O)c1c(C)c2c(n1C)CCc1sc(N)nc1-2	growth inhibition	98.3
COc1ccc2[nH]cc(C(=O)O)c2c1	growth inhibition	66.3

Field: growth inhibition. Fill in for each record below.
1. CC(C)(COC(=O)Nc1cccc(Cl)c1)[N+](=O)[O-]
2. CN(Cc1cc(Cl)cc(Cl)c1)CC(C(=O)c1ccccc1)c1ccccc1 (stereo unspecified)
3. CC(C)(C)N=C=NC(c1ccccc1)(c1ccccc1)c1ccccc1

1: 53.3; 2: 93.3; 3: 2.45

----------
Hi there, I'd appreciate the recorded growth inhibition for every entry that follows.
test: NCI Yeast Anticancer Drug Screen. Data for the cln2 rad14 strain (AID 165);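 further: 0% = growth equal to vehicle treated cultures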; conditions: S. cerevisiae cln2 rad14 strain, at 50.0 µM, stronger effect = higher value
This is part of a sample that, as a whole, favours compounds with a hit. Of some 79,000 tested, about 15% had one in any assay.
One number for each entry, in %.

Below, each entry is followed by its recorded growth inhibition result.
Molecule	Units symbol	growth inhibition
CS(=O)(=O)OCCN(CCOS(C)(=O)=O)c1ccc(C=Nc2cc(Br)c(O)c(Br)c2)c(Cl)c1	%	10.2
O=[N+]([O-])c1ccc(C=NC2CCCCC2)c([N+](=O)[O-])c1	%	-0.85
Cn1c(Sc2ccc(-c3cccnc3)n2C)ccc1-c1cccnc1	%	98.1
CCOC1NC(=S)N(C2CCCCC2)C1(C)C (stereo not given)	%	75.6

Here's the next entry for you.
// COc1ccc(-c2cn(-c3ccccc3)c3ncnc(N)c23)cc1 : growth inhibition value = 33.8

----------
experiment: NCI Yeast Anticancer Drug Screen. Data for the bub3 strain (AID 167); details: S. cerevisiae bub3 mutant strain, at 5.0 µM (retest, dose inferred, filed as 0.5), stronger effect = higher value
Compounds without any hit were thinned out: in the full panel of roughly 79,000, 15% have a hit.
Hi there, I'd appreciate the recorded growth inhibition for every entry that follows.
One number for each entry, in %.

Molecule	Units symbol	Quantitative result
[O-][n+]1onc2ncccc21	%	66

Field: growth inhibition. Fill in for each record below.
1. O=C(c1ccccc1)c1cccc2ccccc12
2. [N-]=[N+]=CC(=O)c1ccc(C(=O)C=[N+]=[N-])cc1

1: 16; 2: 5

----------
Hi there, I'd appreciate the recorded growth inhibition for every entry that follows.
Experiment: NCI Yeast Anticancer Drug Screen. Data for the rad50 strain (AID 155);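 further: 0% = growth of vehicle-only cultures of the same strain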
Settings: S. cerevisiae rad50 strain growth inhibition; at 5.0 µM (retest, dose inferred, filed as 0.5); stronger effect = higher value
Protocol: Growth inhibition of yeast strains with defined genetic alterations is measured as a screen for potential anti-cancer activity. Selected strains with alterations in DNA damage repair or cell cycle control were exposed to compounds and growth inhibition was measured relative to vehicle treated controls. The strain used in this assay is rad50
This is part of a sample that, as a whole, favours compounds with a hit. Of some 79,000 tested, about 15% had one in any assay. Active and inactive are the calls of the source. Cut-off read from the data, not from the text of the source: active = growth inhibition above about 70%; inactive = the rest.

Below, each entry is followed by its recorded growth inhibition result.
Compound	Result
O=C(CCl)NC(=O)N(/N=C/c1ccco1)c1ccccc1	-1% (inactive)
Nc1ncnc(N2CCOCC2)c1N	-1% (inactive)
O=[N+]([O-])c1cc(C(F)(F)F)ccc1SSc1ccc(C(F)(F)F)cc1[N+](=O)[O-]	45% (inactive)
O=C(c1ccccc1)N(C(=S)N(C(=O)c1ccccc1)c1ccccc1)c1ccccc1	-3% (inactive)
N#CCN1CCCCCc2ccccc21	-4% (inactive)
CCN(CC)CCCCCCNc1cc(Cl)cc2cccnc12	18% (inactive)
CC(=O)N1CCCC2=C1CCCCCCCCCC2	-7% (inactive)
O=C(NCCCN1CC2CCCC2C1)C(C1CCCCC1)C1CCCCC1 (centres undefined)	-5% (inactive)

// O=C(C[n+]1ccccc1Cl)c1ccc(Oc2ccc(C(=O)C[n+]3ccccc3Cl)cc2)cc1 : growth inhibition value = -34% (inactive)

----------
test: NCI Yeast Anticancer Drug Screen. Data for the rad50 strain (AID 155);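 further: 0% = growth of vehicle-only cultures of the same strain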; conditions: S. cerevisiae rad50 strain growth inhibition; at 50.0 µM (retest, dose inferred, filed as 5.0); stronger effect = higher value
The panel holds about 79,000 compounds, 15% with a hit somewhere; the sample as a whole holds those more often. Calls of active or inactive are those of the source. Cut-off read from the data, not from the text of the source: active = growth inhibition above about 70%; inactive = the rest.
Endpoint label: growth inhibition

Field: growth inhibition. Fill in for each record below.
1. CCCCCOC(=S)SSSC(=S)OCCCCC
2. Cc1ccc(S(=O)(=O)NC2(C=O)CCC(C(C)(C)C)CC2)cc1 (stereo not drawn)
3. CC1=CC(c2c(O)cc(O)c(C(=O)CCc3ccccc3)c2O)C(C(C)C)CC1 (stereo not drawn)

96% (active)
86% (active)
88% (active)

----------
assay: NCI Yeast Anticancer Drug Screen. Data for the rad50 strain (AID 155);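 further: 0% = growth of vehicle-only cultures of the same strain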; details: S. cerevisiae rad50 strain growth inhibition; at 50.0 µM (retest, dose inferred, filed as 5.0); stronger effect = higher value
This is part of a sample that, as a whole, favours compounds with a hit. Of some 79,000 tested, about 15% had one in any assay.
Class true (1): growth inhibition at least 60%. Class false (0): growth inhibition below 60%.

# example entries with known answers
Compound	Group
CS[C@H]1CC[C@H]2[C@@H]3CCc4cc(O)ccc4[C@H]3CC[C@]12C	true (1)
Nc1ccc(C(=O)NN2C(=O)C(Cl)C2c2cc(Br)cc(Br)c2O)cc1 (configuration not stated)	true (1)
O=c1[nH]c2c([N+](=O)[O-])cc(Cl)cc2nc1/C=C(\O)c1ccc(Cl)cc1	true (1)

Say whether Nc1nc(=Nc2ccccc2)ss1 shows growth inhibition of 60% or more.
true (1)

Say whether COC(=S)S shows growth inhibition of 60% or more.
false (0)

----------
assay: NCI Yeast Anticancer Drug Screen. Data for the bub3 strain (AID 167); settings: S. cerevisiae bub3 mutant strain, at 50.0 µM (retest, dose inferred, filed as 5.0)
Compounds without any hit were thinned out: in the full panel of roughly 79,000, 15% have a hit. The source made the active and inactive calls. Rule as the data show it: active = growth inhibition above about 70%; inactive = the rest.
Outcomes you can answer with include only these: 1 (yes) (active), 0 (no) (inactive)

Compound	Group
COC(=O)C(=O)N(c1cc(C)ccc1C)c1cc(C)ccc1C	0 (no)
Cc1nc(N)nc(-c2ccccc2)c1N=Nc1ccc(Cl)cc1	1 (yes)
O=c1[nH]c(Cc2ccccc2)nc2c1sc1nc3ccccc3n12	1 (yes)
Cc1ccc2c(c1)NC(=O)C(N=[N+]=[N-])(c1ccccc1)C2=O (configuration not stated)	1 (yes)
CC1=Cc2cc3[n-]c(cc4nc(cc5[n-]c(cc1n2)cc5C)C(C)=C4CCC(=O)O)c(CCC(=O)O)c3C.[Pd+2]	0 (no)
CC(C)=CCC/C(C)=C/CCC1(C)C=Cc2c(c3ccccc3oc2=O)O1 (configuration not stated)	0 (no)

For Cc1ccc(S(=O)(=O)OCC2OC(c3ccccc3)OC3C(CO)OC(c4ccccc4)OC23)cc1 (configuration not stated) , which call appears in the assay record?
0 (no)

For CN1C(=O)OC(C)(c2ccccc2)C1=O (configuration not stated) , which call appears in the assay record?
0 (no)

For C/C(=N\N(C)C(=S)Nc1ccccc1)c1ccccn1 , which call appears in the assay record?
0 (no)

For CCOC(=O)/C(=C\n1c(=O)sc2ccccc21)C(=O)c1ccccc1 , which call appears in the assay record?
0 (no)

For Oc1ccc(C2CCc3ccccc32)cc1 (configuration not stated) , which call appears in the assay record?
1 (yes)
